# assay_procedure: Antiinflammatory activity in human neutrophils assessed as inhibition of FMLP/CB-induced elastase release using Meo-Suc-Ala-Ala-Pro-Val-p-nitroanilide as substrate incubated for 5 mins prior to FMLP/CB-challenge by spectrophotometry
# Format: functional, cell-based
# conditions: Neutrophil
quantity_kind: IC50

Consider the worked cases shown below.
molecule | IC50
C=C(C)[C@@H]1CCC2=C[C@]3(C(C)C)CC[C@]2(OO3)[C@@]1(C)CCC(=O)O (relative stereo) | 4.66 µg/mL
CC1=CC(=O)[C@H]2C(C)(C)CCC[C@]2(C)[C@H]1CC/C(C)=C/C(=O)O [CALLILONGISIN D] | > 10 µg/mL

// next item, IC50 requested
### Prompt // query IC50 value for entry C=C1CC[C@H]2C(C)(C)C(=O)CC[C@]2(C)[C@H]1CC/C(C)=C/C(=O)O
### Response > 10 µg/mL
